The reported numbers originate from PubChem BioAssay AID1490.

- Assay system: 4'-phosphopantetheinyl transferase ffp (Bacillus subtilis)
- Protocol text: qHTS Assay for Inhibitors of Bacillus subtilis Sfp phosphopantetheinyl transferase (PPTase);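 note: the enzyme is Sfp with the accession as filed and its product quenches rhodamine fluorescence; potency is the fitted concentration of half-maximal effect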
- Assay setup: Biochemical Sfp PPTase activity
The campaign covered roughly 310,000 compounds. About 11,000 (3.5%) were called active. Another 4% or so got no clear call; they are omitted. What follows is part of a selection rich in actives, with near analogues and random picks from the rest.
Experimental endpoint: Potency

// query Give Potency for this entry on 4'-phosphopantetheinyl transferase ffp (Bacillus subtilis): `CC(C)(C)NCCCOc1ccc(Cl)cc1C(C)(C)C`
// result 50.1 µM (active)

// query Report Potency on 4'-phosphopantetheinyl transferase ffp (Bacillus subtilis) for this entry: CC(C)CCN1NC2(CCC(C)CC2)NC1=S (centres undefined)
// result 79.4 µM (active)

// query Given O=C1CSC(c2ccc(Cl)cc2)N1 (centres undefined) , report its Potency on 4'-phosphopantetheinyl transferase ffp (Bacillus subtilis).
// result 79.4 µM (active)

// query Give 4'-phosphopantetheinyl transferase ffp (Bacillus subtilis) Potency for the following molecule: Cc1ccc(C)c(NC(CC(=O)c2ccccc2)C(=O)OCC(=O)c2cccs2)c1 (centres undefined)
// result 39.8 µM (active)

// query Specify the recorded Potency for `Nn1cnnc1N/N=C/c1cc([N+](=O)[O-])c(Cl)cc1Cl` , system: 4'-phosphopantetheinyl transferase ffp (Bacillus subtilis).
// result 50.1 µM (active)

// query Tell me Potency of `COc1ccc(C(=O)NNC(=O)c2cnccn2)cc1[N+](=O)[O-]` when tested on 4'-phosphopantetheinyl transferase ffp (Bacillus subtilis).
// result 44.7 µM (active)

// query Report measured Potency on 4'-phosphopantetheinyl transferase ffp (Bacillus subtilis); entry: CC1=C(C)CC2C(=O)N(c3cccc4ccccc34)C(=O)C2C1 (centres undefined)
// result 39.8 µM (active)

// query Provide Potency, system 4'-phosphopantetheinyl transferase ffp (Bacillus subtilis), entry `CCOC(=O)c1c(-n2cnnn2)sc(C)c1C`
// result 35.5 µM (active)

// query Name the recorded Potency of COc1cc(NC(=S)N2CCCC(C)C2)c(OC)cc1Cl (centres undefined) , assay system 4'-phosphopantetheinyl transferase ffp (Bacillus subtilis).
// result 14.1 µM (active)

// query Specify the recorded Potency for `CCc1ccccc1N(CC(=O)NCCSCc1ccco1)S(C)(=O)=O` , system: 4'-phosphopantetheinyl transferase ffp (Bacillus subtilis).
// result 17.8 µM (active)

// query Look up and report Potency, with 4'-phosphopantetheinyl transferase ffp (Bacillus subtilis) as system, for CCOC(=O)C(Sc1ncc(C#N)c(N)n1)C(C)C (centres undefined)
// result 56.2 µM (active)

// query GET Potency where system = 4'-phosphopantetheinyl transferase ffp (Bacillus subtilis) and item = `O=S(=O)(c1ccc(NC(=S)NN=C(C2CC2)C2CC2)cc1)N1CCOCC1`
// result 44.7 µM (active)

// query GET Potency where system = 4'-phosphopantetheinyl transferase ffp (Bacillus subtilis) and item = `Cc1cccc(-c2cc(=O)c3cc(C)ccc3o2)c1`
// result 3.55 µM (active)

// query Please tell me the measured Potency for CCOc1ccc2nc(C(=O)N3CCCC(C)C3)sc2c1 (centres undefined) ; system: 4'-phosphopantetheinyl transferase ffp (Bacillus subtilis).
// result 25.1 µM (active)

// query For 4'-phosphopantetheinyl transferase ffp (Bacillus subtilis), give Potency of the listed molecule: COc1c(O)ccc2c1CN1CCc3cc4c(cc3C1C2)OCO4 (centres undefined)
// result 35.5 µM (active)

// query Consider the molecule `COC(=O)/C(=C\Nc1ccccc1)NC(=O)c1ccc(Cl)cc1Cl` tested on 4'-phosphopantetheinyl transferase ffp (Bacillus subtilis); state its Potency.
// result 79.4 µM (active)

// query Consider the molecule `CC(=O)c1c(C)[nH]c(=S)c(C#N)c1-c1ccc(F)cc1` tested on 4'-phosphopantetheinyl transferase ffp (Bacillus subtilis); state its Potency.
// result 44.7 µM (active)

// query Enter measured Potency, system 4'-phosphopantetheinyl transferase ffp (Bacillus subtilis), for the molecule shown: OC(CNCC1CCCO1)Cn1c2ccc(Br)cc2c2cc(Br)ccc21 (centres undefined)
// result 22.4 µM (active)

// query Find the measured Potency of `C#CCOc1ccccc1/C=C1/C(=O)ON=C1C` with 4'-phosphopantetheinyl transferase ffp (Bacillus subtilis) as test system.
// result 50.1 µM (active)

// query Fill in: Potency on 4'-phosphopantetheinyl transferase ffp (Bacillus subtilis), entry CC1=C(C(=O)Nc2ccccc2)C(c2cccs2)C(C#N)=C(SCC#N)N1 (centres undefined)
// result 39.8 µM (active)

// query Give Potency for `CCn1cc(C(=O)NCCCN2CCCCCC2)c(=O)c2cc(S(=O)(=O)N3CCc4ccccc4C3)ccc21` tested on 4'-phosphopantetheinyl transferase ffp (Bacillus subtilis).
// result 89.1 µM (active)

// query Give Potency; test system 4'-phosphopantetheinyl transferase ffp (Bacillus subtilis); molecule `O=c1nc(N/N=C/c2ccco2)cn[nH]1`
// result 31.6 µM (active)

// query Lab note: record Potency of Cc1ccc(C2NC(C(=O)O)CS2)cc1 (centres undefined) tested on 4'-phosphopantetheinyl transferase ffp (Bacillus subtilis).
// result 70.8 µM (active)

// query Write down measured Potency (4'-phosphopantetheinyl transferase ffp (Bacillus subtilis)) for this molecule. `O=C(Oc1ccc(Br)cc1C(=S)N1CCOCC1)c1cccc([N+](=O)[O-])c1`
// result 50.1 µM (active)
